Test: growth suppression of yeast trafficking mutant, preliminary HTS, modulators of trafficking downstream of Golgi apparatus project, 1536-format plate, OD 615 nm (AID 637)
Details: yeast transport mutant growth, absorbance 615 nm, 18 h; stronger effect = higher value
Please go through the items and note down their inhibition.
Give bare numbers, in %.

For each of the items listed, what is its inhibition?
1. Nc1scc(-c2ccncc2)c1Cl
2. COc1ccc(OC)c(C(=O)COC(=O)c2cc(C)oc2C)c1
3. CN(Cc1ccccc1)Cc1nc2c(c(=O)n(C)c(=O)n2C)n1Cc1ccc(Cl)cc1
4. Cc1ccc(C)c(S(=O)(=O)NCc2ccc(C(=O)N3CCN(C)CC3)cc2)c1

-3.49
-4.92
7.05
-3

====

So I've got a bunch of molecules here, and I need their differential viability (reversal) values.
Assay: reversal of MRP1-mediated doxorubicin resistance, pilot screen, H69AR cells, doxorubicin co-treatment (AID 601)
Details: H69AR cells + 2 uM doxorubicin, CellTiter-Glo, 72 h; at 10 µM; stronger effect = higher value
Answers are plain numbers, in %.

Completed entries (count: 5):
INSERT INTO assay_data (molecule, unit_string, recorded_result) VALUES
  ('O=C(NCC(=O)N1CCC(N2CCCCC2)CC1)C1CCCCC1', '%', 1.99),
  ('Cc1ccc2c(CNCc3ccco3)cc(=O)oc2c1', '%', 11.5),
  ('Cc1cc(Br)ccc1NC(=O)CCN1C(=O)c2ccncc2C1=O', '%', 3.85),
  ('CC(c1nnc(SCC(=O)Nc2sccc2C#N)n1-c1ccc(Cl)cc1)N(C)C (stereo not drawn)', '%', -5.88),
  ('CC(NCc1ccco1)C(=O)N1CCc2ccccc2C1 (stereo not drawn)', '%', 5.48);

Provide differential viability (reversal) for all items below, preserving their order.
1. CNC(=O)CSc1nnc(-c2cccc(S(=O)(=O)N3CCOCC3)c2)n1-c1ccc(F)cc1
2. Cc1c(C(=O)N2CCOCC2)oc2ccc(S(=O)(=O)N3CCCC3)cc12
3. Nc1ncnc(Nc2ccccc2C(F)(F)F)n1

[-5.28, -6.14, 2.26]

List the reported differential viability (reversal) of each molecule below.
1. COC(=O)c1c(-c2ccc(F)cc2)noc1N
2. Cc1[nH]c(=O)[nH]c(=O)c1S(=O)(=O)Nc1ccc(Oc2ccccc2)cc1
3. CC(C)(C)NC(=O)Cn1nnnc1-c1nonc1N

1: 3.79; 2: 10.3; 3: 13.3

Quick one: give me differential viability (reversal) for each item below, same order please.
1. CCc1nnc2n1N=C(c1ccc(-c3ccc(Cl)cc3Cl)o1)CS2
2. O=C(Cn1nnc(-c2ccncc2)n1)Nc1ccc2c(c1)CCC2
3. O=C(OCCN1C(=O)c2ccccc2C1=O)c1ccc(S(=O)(=O)N2CCCCCC2)cc1
4. c1ccc2c(c1)[nH]c1c(N3CCC4(CC3)OCCO4)ncnc12
5. O=C(OCc1cc2ccccc2[nH]c1=O)c1ccncc1
6. COc1ccc(C(=O)N(CCN2CCOCC2)CC(=O)NC2CCCC2)cc1OC
7. CCC(CC)C(=O)Nc1cccc(C(=O)NCc2ccco2)c1

1. 23.9
2. 13.3
3. 17.6
4. 5.46
5. -10.5
6. -0.805
7. -20.5

====

Provide the recorded viability for the entries that follow.
Test: SK-BR-3 cell growth inhibitors, pilot screen, 24 h, human (AID 572);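 further: compound exposure lasted between 18 and 24 h rather than exactly 24 h; 100% = carrier-treated control wells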
Settings: SK-BR-3 viability, CellTiter-Glo luminescence, at 10 µM, stronger effect = lower value
The source made the active and inactive calls.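 The calls were made as follows: active = viability at or below 10% of carrier control in both of two separate runs; inconclusive = viability at or below 10% in only one of the two runs; inactive = the rest.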

Solved entries:
INSERT INTO measurements (compound, recorded_result) VALUES
  ('COCCOC(=O)c1[nH]c2c(c1C)C(=O)CC(c1ccc(N(C)C)cc1)C2 (stereo not drawn)', '111% (inactive)'),
  ('CCC(=O)Nc1ccc(Cl)c(NC(=O)C(C)C)c1', '97% (inactive)'),
  ('O=C(CSc1nnc(-c2cccs2)o1)N1CCOCC1', '107% (inactive)'),
  ('Cc1ccc(S(=O)(=O)N(CCO)c2cc3c(s2)CCCC3)cc1', '114% (inactive)'),
  ('O=C(Nc1ccncc1)c1cncc(Br)c1', '78% (inactive)');

Would you be so kind as to report viability for each listed record?
1. Cc1c(NC(=O)C2(c3ccccc3)CCOCC2)c(=O)n(-c2ccccc2)n1C
2. O=c1oc2ccccc2c2nccnc12
3. COc1ccccc1-n1c(C)nnc1SCC(N)=O
4. CCC(C)(C(=O)NC1CCCCC1)N(CC1CCCO1)C(=O)c1ccccn1 (stereo not drawn)

92.5% (inactive)
93.5% (inactive)
127% (inactive)
82% (inactive)

Each of the following entries comes with a recorded value; kindly state viability for each.
1. Cc1ccccc1N(C)S(=O)(=O)c1ccc2[nH]cc(C(=O)NCC3CCCO3)c(=O)c2c1 (stereo not drawn)
2. Cn1nc(C(=O)NC2CCCCCC2)ccc1=O
3. CCc1cc2c(=O)n(C(C)C(=O)OC3CCCCC3)cnc2s1 (stereo not drawn)
4. COc1ccc(S(=O)(=O)Nc2ccc(S(=O)(=O)N3CCCCC3)cc2)cc1OC
5. CS(=O)(=O)NCc1ccc(C(=O)NCc2ccccc2)cc1
6. Cc1nn(Cc2ccc(C(=O)NC3CCCCC3)o2)c(C)c1Br
7. Cc1nnc(SCCn2c(N3CC(C)CC(C)C3)nc3c2c(=O)n(C)c(=O)n3C)s1 (stereo not drawn)
8. COc1ccc2nc(SCC(=O)NC(C)C)[nH]c2c1

["83% (inactive)", "126% (inactive)", "102% (inactive)", "92% (inactive)", "101% (inactive)", "94.5% (inactive)", "106% (inactive)", "104% (inactive)"]

Please state, for each entry, its recorded viability.
1. CC(C)(C)c1ccccc1NC(=O)c1cccnc1
2. COc1ccc(NC(=O)C(C)NS(=O)(=O)c2ccc(NC(C)=O)cc2)cc1Cl (stereo not drawn)
3. COc1ccc(C2C3=C(CC(C)(C)CC3=O)Oc3ncn4nc(-c5cccnc5)nc4c32)cc1 (stereo not drawn)
4. COCCN(C(=O)c1csnn1)C(C(=O)NC1CCCCC1)c1cccs1 (stereo not drawn)

["91.5% (inactive)", "124% (inactive)", "96% (inactive)", "100% (inactive)"]

Give viability for each of the items listed below.
1. CN1CCc2nc(SCC(=O)Nc3ccc(F)cc3)c(C#N)cc2C1
2. C=CCn1c(SCC(=O)c2cc(C)n(C(C)COC)c2C)nc2sc(C)c(C)c2c1=O (stereo not drawn)

90.5% (inactive)
97.5% (inactive)

====

Test: reversal of MRP1-mediated doxorubicin resistance, pilot screen, H69AR cells, doxorubicin co-treatment (AID 601)
Details: H69AR cells, CellTiter-Glo, 72 h; compound alone cytotoxicity; at 10 µM
Attribute measured: viability (%)
Give bare numbers, in %.

Record viability for all entries; do not skip any.
1. Cc1cc(NC(=O)NC(=O)c2cccc(OC(F)(F)C(F)F)c2)n[nH]1
2. COc1ccc(NC(=O)CN(c2ccc(C)cc2)S(C)(=O)=O)c(OC)c1
3. O=c1[nH]c(CN2CCN(Cc3ccccc3)CC2)nc2sc3c(c12)CCC3
4. CCCCN(CC)S(=O)(=O)c1ccc2c(c1)CCCN2C(C)=O
5. CN1CCN(CC(=O)Nc2ccc(Cl)cc2Cl)CC1
6. CCc1nc(SCC(=O)Nc2nccs2)c2oc3ccccc3c2n1

[85.2, 101, 87.9, 104, 93.8, 37.4]

====

Molecular target: Receptor tyrosine-protein kinase erbB-2 (Homo sapiens)
Assay: reducers of endogenous Her2 protein level, primary screen, SKBR3 breast tumor cells, AlphaScreen, ATP viability (AID 461);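 further: lower value means less Her2 protein in the cells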
Settings: 18-24 h, at 10 µM, stronger effect = lower value
Criterion: Her2 level strictly less than 90%. Met: Yes. Not met: No.

Recorded results for 6 compounds are shown here.
INSERT INTO measurements (compound, answer_label) VALUES
  ('C=CCn1c2ccccc2c2nnc(SCC(=O)NC(C(=O)OC)C(C)C)nc21 (stereo unspecified)', 'No'),
  ('O=C(CN1C(=O)CC(c2ccco2)Sc2ccccc21)Nc1ccccc1F (stereo unspecified)', 'Yes'),
  ('COc1ccc(S(=O)(=O)CCC(=O)O)cc1', 'Yes'),
  ('CCC(C(=O)NC1CCCC1)N(Cc1ccco1)C(=O)Cn1nnc(-c2ccc(C)cc2)n1 (stereo unspecified)', 'No'),
  ('O=C(O)Cn1cc2c(n1)CCCC2', 'No'),
  ('Cc1ccccc1C(=O)NC1CCN(CC(=O)Nc2nccs2)CC1', 'No');

Determine if CC(C)(C)OC(=O)N1CCCC1C(=O)N1CCc2ccccc21 (stereo unspecified) shows Her2 level strictly lower than 90%.
Yes

Can you check COCCCNC(=O)c1ccc2c(c1)OCO2 next?
No

Another compound: Cc1cccc(C2c3c(n(C)c(=O)n(C)c3=O)N=C3c4ccccc4C(=O)C32)c1 (stereo unspecified)
Yes

====

Assay: reversal of MRP1-mediated doxorubicin resistance, pilot screen, H69AR cells, doxorubicin co-treatment (AID 601)
Conditions: H69AR cells + 2 uM doxorubicin, CellTiter-Glo, 72 h; at 10 µM; stronger effect = higher value
Calls of active or inactive are those of the source.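 How the source made its calls: active means viability loss from added drug above about 55%, and viability with drug at most 40%, in both replicates (limit read from the data, passing the limit was not always enough); inconclusive means both conditions met in only one replicate; inactive means neither replicate meets both conditions.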
Record form. Attribute: differential viability (reversal). Fill in for each entry.

// for each compound in input: emit differential viability (reversal)
1. O=C1CCCC2=C1C1(CCCC1)N=C(Nc1nc3ccccc3s1)N2
2. Cc1occc1-c1nnc(SCC(=O)c2ccc(F)cc2)n1Cc1ccco1
3. CC(C)(Oc1ccc(Cl)cc1)C(=O)NC1CCSC1=O (configuration not stated)
4. O=C(Nc1ccc(F)cc1F)NC1CC(=O)N(Cc2ccccc2)C1 (configuration not stated)
5. COc1ccccc1N1CCN(C(=O)CSc2nc(-c3ccccc3)cc(=O)[nH]2)CC1
6. Cn1nnnc1SCC(=O)NCc1ccco1

["11.3% (inactive)", "3.13% (inactive)", "19.5% (inactive)", "0.32% (inactive)", "-1.75% (inactive)", "9.46% (inactive)"]

Lab note: each compound below needs its differential viability (reversal) filled in.
1. CCOc1ccc(NC(=O)CSc2nnc(Cc3cccn3C)n2-c2ccc(OC)cc2)cc1
2. CCOCCCNC(=O)CS(=O)(=O)Cc1nc(-c2cccc(OC)c2)oc1C
3. CC1(c2ccc(Cl)cc2)NC(=O)N(CC(=O)NC(=O)NCc2ccco2)C1=O (configuration not stated)

1: -5.27% (inactive); 2: -3.73% (inactive); 3: 26.4% (inactive)

Lab note: each compound below needs its differential viability (reversal) filled in.
1. CC(C)CCNC(=O)NC(=O)COc1ccccc1C#N
2. CCOC(=O)c1c(C)[nH]c(C(=O)COC(=O)C2CC2C)c1C (configuration not stated)
3. Cc1nnc(SCC(=O)N(C(C)C)C(C)C)nc1C
4. O=C(O)c1cc2c([nH]c1=O)CCCC2
5. Cc1nc(NC(=O)C2CC3CCCC(C2)C3=O)sc1C (configuration not stated)
6. O=C(Cn1nnc(-c2ccc(S(=O)(=O)N3CCCC3)cc2)n1)NCC1CCCO1 (configuration not stated)

7.26% (inactive)
15.7% (inactive)
10.3% (inactive)
0.75% (inactive)
-2.88% (inactive)
2.39% (inactive)

Each compound below has a reported value. Please supply its differential viability (reversal).
1. O=C(Cn1cccc1)N1CCN(C(c2ccccc2)c2ccccc2)CC1
2. O=c1c2c3c(sc2nc2sc(C4CC4)nn12)CCCC3
3. Cc1ccc(-n2c(Cn3cnc4ccccc43)nnc2SCC(=O)O)cc1

1. -4.55% (inactive)
2. -7.56% (inactive)
3. 5.34% (inactive)

# per-item lookup of differential viability (reversal); items listed below
1. CCOC(=O)C1C(=O)N(C(=O)c2ccc(OC)cc2)CC1c1ccccc1 (configuration not stated)
2. NC1=NC(c2ccc(Br)cc2)n2c(nc3ccccc32)N1 (configuration not stated)
3. CC(C)(O)C1=NOC(c2ccccc2)C1 (configuration not stated)
4. Cc1ccc(Oc2ccc(-c3nc(N)nc(N)n3)cc2)cc1
5. Cc1cc(C(=O)CN2C(=O)c3ccccc3C2=O)c(C)n1Cc1cccs1
6. COC(=O)c1ccc(NC(=O)CN2C(=O)CSC2=O)cc1
7. CN(C(=O)COC(=O)C1CCN(S(=O)(=O)c2cccs2)CC1)C1CCS(=O)(=O)C1 (configuration not stated)
8. CN1C(=O)C2(NCCc3c2[nH]c2ccccc32)c2ccccc21 (configuration not stated)

1.9% (inactive)
4.81% (inactive)
-14.7% (inactive)
23.1% (inactive)
3.23% (inactive)
12% (inactive)
12.6% (inactive)
12.9% (inactive)

Okay, here is my list. What is differential viability (reversal) for each of these?
1. CCCN(CCC)S(=O)(=O)c1ccc(C(=O)Nc2nnc(-c3cccc(OC)c3)o2)cc1
2. C/C=C(\C)c1nnc(NC(=O)C(C)C)s1
3. C=CCNC(=O)c1cc(-c2ccccc2O)on1
4. COc1ccccc1-c1nnc(SCc2ccccn2)n1C

["-7.05% (inactive)", "9.51% (inactive)", "0.065% (inactive)", "-10.8% (inactive)"]

# map each compound to its differential viability (reversal)
1. Clc1ccc(OCc2nc(-c3ccccn3)no2)c(Br)c1
2. CC(C)CCNC(=O)NC(=O)CN1C(=O)NC2(CCCCC2)C1=O
3. COc1cccc(-n2nc(C(=O)Nc3ccc4c(c3)OCO4)c3ccccc3c2=O)c1

["3.96% (inactive)", "-4.12% (inactive)", "5.91% (inactive)"]

Parameter requested: differential viability (reversal). Apply to each item below.
1. C/C(N)=C(\C#N)C(=O)NCCc1ccccn1
2. Fc1ccccc1-c1nc(-c2ccccc2)no1
3. O=C(O)CCCc1nc(-c2ccccc2)no1
4. Cc1csc2nc(CSc3nc4ccccc4o3)c(Br)n12

["7.44% (inactive)", "19.6% (inactive)", "-0.87% (inactive)", "3.21% (inactive)"]
